Quick reference: cell viability of the listed items.
tested on: P12-Ichikawa; assay: cell viability relative to DMSO control; higher = less cytotoxic; settings: HPLM + 10% dialyzed FBS; 48 h; 46.1 µM
Just the number please, in %, no unit attached.

Example results:
Molecule: CC1=C(/C=C/C(C)=C/C=C/C(C)=C/C(=O)O)C(C)(C)CCC1
cell viability / %: 104
--
Molecule: Clc1ccccc1C(c1ccccc1)(c1ccccc1)n1ccnc1
cell viability / %: 74.8

Consider the record given below.
Entry under review: OCCN(CCO)c1nc(N2CCCCC2)c2nc(N(CCO)CCO)nc(N3CCCCC3)c2n1 . Reported cell viability?
75
